EXPERIMENT: Fibril dimensions measured from TEM images
Assay type: physicochemical
TEST_SETTINGS: physiological conditions, TEM
Where a SMILES comes first, the peptide text is derived from it. [ ]: non-standard residue; d: D form. Orn = NCCC[C@H](N)C(=O)O
MEASURED_METRIC: l, fibril persistence length

QUERY: Dear colleague, I am looking for the recorded l, fibril persistence length of the following molecule: CC(=O)N[C@@H](CC(N)=O)C(=O)N[C@@H](CC(N)=O)C(=O)N[C@@H](CCCNC(=N)N)C(=O)N[C@@H](Cc1ccccc1)C(=O)N[C@@H](CCCN)C(=O)N[C@@H](Cc1c[nH]c2ccccc12)C(=O)N[C@@H](CCCN)C(=O)N[C@@H](Cc1ccccc1)C(=O)N[C@@H](CCC(=O)O)C(=O)N[C@@H](CC(N)=O)C(=O)N[C@@H](CC(N)=O)C(N)=O [Peptide P11-16, CH3CO-N-N-R-F-O-W-O-F-E-N-N-NH2] (Ac-NNRF[Orn]W[Orn]FENN-NH2)
RESULT: 0.5-1.6 μm

###

Reported Net charge at pH 7.5 values follow for various compounds
EXPERIMENT: Net charge of peptide at pH 7.5 in physiological solution
Format: physicochemical
TEST_SETTINGS: per peptide, pH 7.5, physiological solution
Where a SMILES comes first, the peptide text is derived from it. [ ]: non-standard residue; d: D form. Orn = NCCC[C@H](N)C(=O)O

Example results:
>  <COMPOUND>
CC(=O)N[C@@H](CCC(N)=O)C(=O)N[C@@H](CCC(N)=O)C(=O)N[C@@H](CCCNC(=N)N)C(=O)N[C@@H](CCC(N)=O)C(=O)N[C@@H](CCCN)C(=O)N[C@@H](CCC(N)=O)C(=O)N[C@@H](CCCN)C(=O)N[C@@H](CCC(N)=O)C(=O)N[C@@H](CCC(=O)O)C(=O)N[C@@H](CCC(N)=O)C(=O)N[C@@H](CCC(N)=O)C(N)=O [Peptide P11-19, CH3CO-Q-Q-R-Q-O-Q-O-Q-E-Q-Q-NH2] (Ac-QQRQ[Orn]Q[Orn]QEQQ-NH2)

>  <Net charge at pH 7.5>
+2

$$$$
>  <COMPOUND>
CC(=O)N[C@@H](CO)C(=O)N[C@@H](CO)C(=O)N[C@@H](CCCNC(=N)N)C(=O)N[C@@H](Cc1ccccc1)C(=O)N[C@@H](CCC(=O)O)C(=O)N[C@@H](Cc1c[nH]c2ccccc12)C(=O)N[C@@H](CCC(=O)O)C(=O)N[C@@H](Cc1ccccc1)C(=O)N[C@@H](CCC(=O)O)C(=O)N[C@@H](CO)C(=O)N[C@@H](CO)C(N)=O [Peptide P11-9, CH3CO-S-S-R-F-E-W-E-F-E-S-S-NH2] (Ac-SSRFEWEFESS-NH2)

>  <Net charge at pH 7.5>
−2

$$$$
>  <COMPOUND>
CC(=O)N[C@@H](CC(N)=O)C(=O)N[C@@H](CC(N)=O)C(=O)N[C@@H](CCCNC(=N)N)C(=O)N[C@@H](Cc1ccccc1)C(=O)N[C@@H](CCC(=O)O)C(=O)N[C@@H](Cc1c[nH]c2ccccc12)C(=O)N[C@@H](CCC(=O)O)C(=O)N[C@@H](Cc1ccccc1)C(=O)N[C@@H](CCC(=O)O)C(=O)N[C@@H](CC(N)=O)C(=O)N[C@@H](CC(N)=O)C(N)=O [Peptide P11-15, CH3CO-N-N-R-F-E-W-E-F-E-N-N-NH2] (Ac-NNRFEWEFENN-NH2)

>  <Net charge at pH 7.5>
−2

$$$$
>  <COMPOUND>
CC(=O)N[C@@H](CCC(N)=O)C(=O)N[C@@H](CCC(N)=O)C(=O)N[C@@H](CCCNC(=N)N)C(=O)N[C@@H](CCC(N)=O)C(=O)N[C@@H](CCC(=O)O)C(=O)N[C@@H](CCC(N)=O)C(=O)N[C@@H](CCC(=O)O)C(=O)N[C@@H](CCC(N)=O)C(=O)N[C@@H](CCC(=O)O)C(=O)N[C@@H](CCC(N)=O)C(=O)N[C@@H](CCC(N)=O)C(N)=O [Peptide P11-20, CH3CO-Q-Q-R-Q-E-Q-E-Q-E-Q-Q-NH2] (Ac-QQRQEQEQEQQ-NH2)

>  <Net charge at pH 7.5>
−2

$$$$

QUERY: Dear colleague, I am looking for the recorded Net charge at pH 7.5 of the following compound: CC(=O)N[C@H](C(=O)N[C@H](C(=O)N[C@@H](CCCNC(=N)N)C(=O)N[C@@H](Cc1ccccc1)C(=O)N[C@@H](CCC(=O)O)C(=O)N[C@@H](Cc1c[nH]c2ccccc12)C(=O)N[C@@H](CCC(=O)O)C(=O)N[C@@H](Cc1ccccc1)C(=O)N[C@@H](CCC(=O)O)C(=O)N[C@H](C(=O)N[C@H](C(N)=O)[C@@H](C)O)[C@@H](C)O)[C@@H](C)O)[C@@H](C)O [Peptide P11-17, CH3CO-T-T-R-F-E-W-E-F-E-T-T-NH2] (Ac-TTRFEWEFETT-NH2)
RESULT: −2
